A collection of molecules and their measured IC50
System: CT26
experiment_notes: Antiproliferative activity against mouse CT26 cells assessed as inhibition of cell proliferation incubated for 72 hrs by MTT assay
Assay type: functional, cell-based
condition_info: CT26, 72 h
readout_label: IC50

In [3]: df
Out[3]:
                                   molecule  readout_label   result
0  Cc1ccc(-c2nn(-c3ccccc3)cc2/C=C/C(=O)N2CCCCC2C(N)=O)cc1C (configuration not stated)           IC50  9.24 µM
1  O=S(=O)(/C=C/c1cn(-c2ccccc2)nc1-c1cccnc1)c1ccccc1           IC50  1.97 µM

====

experiment_notes: Clearance in male Sprague-Dawley rat at 10 mg/kg, IG by LC-MS/MS analysis
Format: ADME, organism-based
condition_info: in vivo, po
readout_label: CL/F (mL/min/kg)

                  compound_structure_string  readout_label  recorded_number
0  O=S(=O)(/C=C/c1cn(-c2ccccc2)nc1-c1cccnc1)c1ccccc1           CL/F               18

====

experiment_notes: Clearance in male Sprague-Dawley rat at 1 mg/kg, iv by LC-MS/MS analysis
Assay type: ADME, organism-based
condition_info: in vivo
readout_label: clearance (mL/min/kg)

In [3]: df
Out[3]:
                  compound_structure_string  readout_label  recorded_number
0  O=S(=O)(/C=C/c1cn(-c2ccccc2)nc1-c1cccnc1)c1ccccc1      clearance             11.8

====

Tested on: HCT-116
experiment_notes: Antiproliferative activity against human HCT-116 cells assessed as inhibition of cell proliferation incubated for 48 hrs by MTT assay
Assay type: functional, cell-based
condition_info: HCT-116, 48 h
readout_label: IC50

>>> df
                  compound_structure_string  readout_label   result
0  O=S(=O)(/C=C/c1cn(-c2ccccc2)nc1-c1cccnc1)c1ccccc1           IC50  4.18 µM

====

experiment_notes: Cmax in male Sprague-Dawley rat at 10 mg/kg, IG by LC-MS/MS analysis
Assay type: ADME, organism-based
condition_info: in vivo, po
readout_label: Cmax (µg/mL)

In [3]: df
Out[3]:
                  compound_structure_string  recorded_number
0  O=S(=O)(/C=C/c1cn(-c2ccccc2)nc1-c1cccnc1)c1ccccc1              2.4

====

System: HCT-116
experiment_notes: Antiproliferative activity against human HCT-116 cells assessed as inhibition of cell proliferation incubated for 72 hrs by MTT assay
Type: functional, cell-based
condition_info: HCT-116, 72 h
pIC50: −log10 of the molar value.
readout_label: pIC50

In [3]: df
Out[3]:
                                   molecule  result
0  NC(=O)C1CCCCN1C(=O)/C=C/c1cn(-c2ccccc2)nc1-c1cccc(C(=O)O)c1 (stereo not drawn)  < 4.30
1  N#Cc1cccc(-c2nn(-c3ccccc3)cc2/C=C/C(=O)N2CCCCC2C(N)=O)c1 (stereo not drawn)  < 4.30
2  O=S(=O)(CCc1cn(-c2ccccc2)nc1-c1cccnc1)c1ccccc1  < 4.30

====

measurement_target: Heat shock protein HSP 90-beta/Hsp90 co-chaperone Cdc37 (Homo sapiens) (UniProt P08238+Q16543)
experiment_notes: Inhibition of His-tagged HSP90(unknown origin)/GST-tagged CDC37 (unknown origin) protein-protein interaction at 100 uM preincubated with HSP90 for 1 hrs followed by CDC37 addition and measured after 1 hrs by HTRF assay relative to control
Assay type: protein-complex assay
A collection of compounds and their measured inhibition
readout_label: inhibition (%)

>>> print(df.to_string())
                                   compound  readout_label  unit_abbreviation  recorded_number
0  CCCN(C)C(=O)/C=C/c1cn(-c2ccccc2)nc1-c1cccnc1     inhibition                  %             59.8
1  CN(C)C(=O)/C=C/c1cn(-c2ccccc2)nc1-c1cccnc1     inhibition                  %             58.9
2  NC(=O)C1CCCCN1C(=O)/C=C/c1cn(-c2ccccc2)nc1-c1cccs1 (centres undefined)     inhibition                  %               59
3  CCN(CC)C(=O)/C=C/c1cn(-c2ccccc2)nc1-c1cccnc1     inhibition                  %             60.2

====

Test system: HCT-116
experiment_notes: Antiproliferative activity against human HCT-116 cells assessed as inhibition of cell proliferation incubated for 72 hrs by MTT assay
Type: functional, cell-based
condition_info: HCT-116, 72 h
pIC50: −log10 of the molar value.
A collection of compounds and their measured pIC50
readout_label: pIC50

                                    compound  recorded_number
 0  Cc1cc(-c2nn(-c3ccccc3)cc2/C=C/C(=O)N2CCCCC2C(N)=O)ccc1Cl (centres undefined)             4.97
 1  Cc1ccccc1-c1nn(-c2ccccc2)cc1/C=C/C(=O)N1CCCCC1C(N)=O (centres undefined)             4.99
 2  NC(=O)C1CCCCN1C(=O)/C=C/c1cn(-c2ccccc2)nc1-c1cccc(Cl)c1 (centres undefined)             5.04
 3  COc1ncccc1-c1nn(-c2ccccc2)cc1/C=C/C(=O)N1CCCCC1C(N)=O (centres undefined)             4.90
 4  Cc1cc(-c2nn(-c3ccccc3)cc2/C=C/C(=O)N2CCCCC2C(N)=O)ccc1F (centres undefined)             4.90
 5  NC(=O)C1CCCCN1C(=O)/C=C/c1cn(-c2ccccc2)nc1-c1ccncc1 (centres undefined)             5.09
 6  CN(C)C(=O)/C=C/c1cn(-c2ccccc2)nc1-c1cccnc1             4.91
 7  NC(=O)C1CCCCN1C(=O)/C=C/c1cn(-c2ccccc2)nc1-c1ccc(Cl)cc1 (centres undefined)             4.93
 8  O=C(/C=C/c1cn(-c2ccccc2)nc1-c1cccnc1)N1CCCCC1             5.09
 9  Cc1ccc(-c2nn(-c3ccccc3)cc2/C=C/C(=O)N2CCCCC2C(N)=O)cc1C (centres undefined)             5.11
10  NC(=O)C1CCCCN1C(=O)/C=C/c1cn(-c2ccccc2)nc1-c1cccnc1Br (centres undefined)             4.93
11  NC(=O)C1CCCCN1C(=O)/C=C/c1cn(-c2ccccc2)nc1-c1ccccc1 (centres undefined)             5.00
12  NC(=O)C1CCCCN1C(=O)/C=C/c1cn(-c2ccccc2)nc1-c1cccc(Br)c1 (centres undefined)             4.91
13  Cc1cccc(-c2nn(-c3ccccc3)cc2/C=C/C(=O)N2CCCCC2C(N)=O)c1 (centres undefined)             5.09
